- PROTOCOL DESCRIPTION: AUC (0 to 48 hrs) in epileptic patient (6 patients) at 800 mg, iv administered as single dose by gas liquid chromatographic method
- Assay type: ADME, organism-based
- Design: dose 800 mg, time < 48 hr, route intravenous
- PROTOCOL CONDITIONS: human, in vivo
ATTRIBUTE MEASURED: AUC(0-t) at 48 h (µg·h/mL)

> print(dat)
                                   compound  attribute.measured  reported
1  CCCC(CCC)C(=O)[O-].[Na+] [VALPROATE SODIUM]    AUC(0-t) at 48 h       785

* * *

- PROTOCOL DESCRIPTION: Half life in epileptic patient (6 patients) at 800 mg, po administered as single dose by gas liquid chromatographic method
- Format: ADME, organism-based
- PROTOCOL CONDITIONS: human, in vivo
ATTRIBUTE MEASURED: half-life (h)

> print(dat)
                                   molecule  units.text  reported
1  CCCC(CCC)C(=O)[O-].[Na+] [VALPROATE SODIUM]           h         9

* * *

- PROTOCOL DESCRIPTION: Extrapolated volume of distribution in epileptic patient (6 patients) at 800 mg, iv administered as single dose by gas liquid chromatographic method
- Format: ADME, organism-based
- PROTOCOL CONDITIONS: human, in vivo
ATTRIBUTE MEASURED: Vd (L)

> print(dat)
                                   compound  reported
1  CCCC(CCC)C(=O)[O-].[Na+] [VALPROATE SODIUM]      13.8

* * *

- PROTOCOL DESCRIPTION: Volume of distribution (area) in epileptic patient (6 patients) at 800 mg, iv administered as single dose by gas liquid chromatographic method
- Type: ADME, organism-based
- PROTOCOL CONDITIONS: human, in vivo
ATTRIBUTE MEASURED: Vd (L)

> print(dat)
                                   compound  attribute.measured  reported
1  CCCC(CCC)C(=O)[O-].[Na+] [VALPROATE SODIUM]                  Vd      12.8

* * *

- PROTOCOL DESCRIPTION: Total clearance in healthy volunteer (6 volunteers) at 800 mg, iv administered as single dose by gas liquid chromatographic method
- Assay type: ADME, organism-based
- PROTOCOL CONDITIONS: human, in vivo
ATTRIBUTE MEASURED: clearance

> print(dat)
                                   compound  attribute.measured  reported
1  CCCC(CCC)C(=O)[O-].[Na+] [VALPROATE SODIUM]           clearance  9 mL/min

* * *

- PROTOCOL DESCRIPTION: AUC (0 to 48 hrs) in epileptic patient (6 patients) at 800 mg, po administered as single dose by gas liquid chromatographic method
- Type: ADME, organism-based
- Set-up: dose 800 mg, time < 48 hr, route oral
- PROTOCOL CONDITIONS: human, in vivo
ATTRIBUTE MEASURED: AUC(0-t) at 48 h (µg·h/mL)

> print(dat)
                                   compound  units.text  reported
1  CCCC(CCC)C(=O)[O-].[Na+] [VALPROATE SODIUM]     µg·h/mL       749
